system: SF539 (Glioblastoma); test: Bliss excess, mean over the matrix (fraction); higher = more synergy;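 further: after 72 h of two-drug dosing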
reported endpoint: Bliss excess
Give bare numbers.

Answered cases to consult:
compound | target entity | Bliss excess
CN(CCO)CC[C@H](CSc1ccccc1)Nc1ccc(S(=O)(=O)NC(=O)c2ccc(N3CCC([C@@H](O)c4ccccc4-c4ccc(Cl)cc4)CC3)cc2)cc1S(=O)(=O)C(F)(F)F [AZD4320] + Nc1ccn([C@@H]2O[C@H](CO)[C@@H](O)C2(F)F)c(=O)n1 [Gemcitabine] (first compound max 1 µM, 7x7, partner max 0.3 µM) | SF539 (Glioblastoma) | -0.0356
C=CCn1c(=O)c2cnc(Nc3ccc(N4CCN(C)CC4)cc3)nc2n1-c1cccc(C(C)(C)O)n1 [AZD1775] + C1CN(CCC1(C(=O)N[C@@H](CCO)C2=CC=C(C=C2)Cl)N)C3=NC=NC4=C3C=CN4 [Capivasertib] (first compound max 3 µM, partner max 3 µM) | SF539 (Glioblastoma) | -0.0878
NC1(C(=O)N[C@@H](CCO)c2ccc(Cl)cc2)CCN(c2ncnc3[nH]ccc23)CC1 [Capivasertib] + CC(=O)c1c(C)c2cnc(Nc3ccc(N4CCNCC4)cn3)nc2n(C2CCCC2)c1=O [Palbociclib] (first compound max 10 µM, 7x7, partner max 10 µM) | SF539 (Glioblastoma) | -0.0486
COc1cccc2c1C(=O)c1c(O)c3c(c(O)c1C2=O)C[C@@](O)(C(=O)CO)C[C@@H]3O[C@H]1C[C@H](N)[C@H](O)[C@H](C)O1 [Doxorubicin] + Cc1cc2ncnn2cc1Nc1ncc2c(n1)n(C1CCOCC1)c(=O)n2C [AZD7648] (first compound max 1 µM, 7x7, partner max 10 µM) | SF539 (Glioblastoma) | 0.0403
CCN(CCO)CCCOc1ccc2c(Nc3cc(CC(=O)Nc4cccc(F)c4)[nH]n3)ncnc2c1 [AZD2811] + O=C(c1cc(Cc2n[nH]c(=O)c3ccccc23)ccc1F)N1CCN(C(=O)C2CC2)CC1 [Olaparib] (first compound max 1 µM, 7x7, partner max 10 µM) | SF539 (Glioblastoma) | 0.0434
CC(=O)Nc1cccc(-n2c(=O)n(C3CC3)c(=O)c3c(Nc4ccc(I)cc4F)n(C)c(=O)c(C)c32)c1 [Trametinib] + Cc1nc(-c2cn3c(n2)-c2ccc(-c4cnn(C(C)(C)C(N)=O)c4)cc2OCC3)n(C(C)C)n1 [Taselisib] (first compound max 1 µM, 7x7, partner max 10 µM) | SF539 (Glioblastoma) | 0.177

Please report Bliss excess for every entry that follows.
1. COc1nnc2ccc(N3CCC(c4ccc(OCCN5CCN(C)C(=O)[C@H]5C)cc4)CC3)nn12 [AZD5153] + Cc1c2c(nn1C)CSCc1cc(n(C)n1)CSc1cc(c3ccccc3c1)OCCCc1c(C(=O)O)n(C)c3c-2c(Cl)ccc13 [AZD5991] (first compound max 1 µM, 7x7, partner max 1 µM)
2. CN(C)CCCOc1ccc(-c2ccc3ncc4c(c3c2)n(C2CCOCC2)c(=O)n4C)cn1 [AZD0156] + O=C(c1cc(Cc2n[nH]c(=O)c3ccccc23)ccc1F)N1CCN(C(=O)C2CC2)CC1 [Olaparib] (first compound max 3 µM, partner max 3 µM)
3. Cc1c2c(nn1C)CSCc1cc(n(C)n1)CSc1cc(c3ccccc3c1)OCCCc1c(C(=O)O)n(C)c3c-2c(Cl)ccc13 [AZD5991] + C1CN(CCC1(C(=O)N[C@@H](CCO)C2=CC=C(C=C2)Cl)N)C3=NC=NC4=C3C=CN4 [Capivasertib] (first compound max 1 µM, 7x7, partner max 3 µM)
4. CS(=O)(=O)CCNCc1ccc(-c2ccc3ncnc(Nc4ccc(OCc5cccc(F)c5)c(Cl)c4)c3c2)o1 [Lapatinib] + NC1(c2ccc(-c3nc4ccn5c(=O)[nH]nc5c4cc3-c3ccccc3)cc2)CCC1 [MK-2206] (first compound max 10 µM, 7x7, partner max 10 µM)
5. CN(CCO)CC[C@H](CSc1ccccc1)Nc1ccc(S(=O)(=O)NC(=O)c2ccc(N3CCC([C@@H](O)c4ccccc4-c4ccc(Cl)cc4)CC3)cc2)cc1S(=O)(=O)C(F)(F)F [AZD4320] + Cc1cc2ncnn2cc1Nc1ncc2c(n1)n(C1CCOCC1)c(=O)n2C [AZD7648] (first compound max 1 µM, 7x7, partner max 10 µM)
6. COc1cc2c(cc1OCCCCCOc1cc3c(cc1OC)C(=O)N1C=C(C)C[C@H]1C=N3)N=C[C@@H]1CC(C)=CN1C2=O [SG3199] + O=C(c1cc(Cc2n[nH]c(=O)c3ccccc23)ccc1F)N1CCN(C(=O)C2CC2)CC1 [Olaparib] (first compound max 0.001 µM, 7x7, partner max 10 µM)
7. Cc1cc2ncnn2cc1Nc1ncc2c(n1)n(C1CCOCC1)c(=O)n2C [AZD7648] + O=C(c1cc(Cc2n[nH]c(=O)c3ccccc23)ccc1F)N1CCN(C(=O)C2CC2)CC1 [Olaparib] (first compound max 10 µM, 7x7, partner max 10 µM)

Return:
1. -0.0273
2. 0.133
3. -0.0043
4. -0.0077
5. 0.0095
6. -0.0049
7. -0.0236
